biological target: ATeam 1.03 (Bacillus subtilis, UniProt P37812); construct: gene atpC; epsilon subunit between mseCFP and Venus; experiment: FRET sensor titration; format: binding; conditions: read-out: C50
Sequence (P37812 whole entry): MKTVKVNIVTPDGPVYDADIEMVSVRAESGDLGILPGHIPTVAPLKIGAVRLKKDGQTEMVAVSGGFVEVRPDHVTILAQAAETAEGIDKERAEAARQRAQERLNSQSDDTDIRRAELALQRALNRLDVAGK
pEC50: −log10 of the molar value.

| compound | pEC50 |
| --- | --- |
| Nc1ncnc2c1ncn2[C@@H]1O[C@H](COP(=O)(O)OP(=O)(O)OP(=O)(O)O)[C@@H](O)[C@H]1O [ATP] | 2.74 |
